Tested on: MIA PaCa-2
Experiment: Cytotoxicity against human MIAPaCa2 cells after 48 hrs by alamar blue assay
Format: functional, cell-based
Conditions: MIA PaCa-2, 48 h
pIC50: −log10 of the molar value.

testSmiles: COc1cc(/C=C\c2ccc3cc[nH]c3c2)cc(OC)c1
pIC50: 6.70

testSmiles: COc1cc(/C=C\c2ccc(OC)c(N)c2)cc(OC)c1.Cl
pIC50: 7.40

testSmiles: COc1cc(/C=C\c2ccc3[nH]cnc3c2)cc(OC)c1
pIC50: 6.10

testSmiles: CC[C@]1(O)C[C@H]2CN(CCc3c([nH]c4ccccc34)[C@@](C(=O)OC)(c3cc4c(cc3OC)N(C=O)[C@H]3[C@@](O)(C(=O)OC)[C@H](OC(C)=O)[C@]5(CC)C=CCN6CC[C@]43[C@@H]65)C2)C1
pIC50: 7.82

testSmiles: COc1cc2c(c(OC)c1OC)-c1ccc(OC)c(=O)cc1[C@@H](NC(C)=O)CC2
pIC50: 7.60

testSmiles: COc1cc(/C=C\c2ccc(OC)c(N)c2)cc(OCCO)c1
pIC50: 6.74

testSmiles: COc1cc(/C=C\c2ccc3[nH]ccc3c2)cc(OC)c1
pIC50: 6.70

testSmiles: COc1cc(/C=C\c2ccc3c(ccn3C)c2)cc(OC)c1
pIC50: 7.10

testSmiles: COc1cc(O)cc(/C=C\c2ccc(OC)c(N)c2)c1
pIC50: 6.15

testSmiles: COc1ccc(/C=C\c2cc(OC)c(OC)c(OC)c2)cc1O
pIC50: 8.10
